- tested system: Human CXCR4 transfected HEK293 cells (Homo sapiens, UniProt P61073)
- Sequence (P61073 whole entry): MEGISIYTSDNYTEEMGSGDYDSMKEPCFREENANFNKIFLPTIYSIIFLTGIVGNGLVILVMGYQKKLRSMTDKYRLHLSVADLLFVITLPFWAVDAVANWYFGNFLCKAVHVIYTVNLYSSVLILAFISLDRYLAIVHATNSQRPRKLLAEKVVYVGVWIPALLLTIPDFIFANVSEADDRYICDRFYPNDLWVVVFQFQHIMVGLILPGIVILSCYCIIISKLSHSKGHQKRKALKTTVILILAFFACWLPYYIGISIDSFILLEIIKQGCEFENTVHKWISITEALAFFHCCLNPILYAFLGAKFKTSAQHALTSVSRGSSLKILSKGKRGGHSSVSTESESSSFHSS
- assay procedure: CXCR4 functional calcium assay (calcium flux FLIPR, antagonism of SDF1 response)
- experimental context: CXCR4 functional activity, antagonism of SDF1 (EC50 concentration), read-out: CXCR4 fKi
pKi: −log10 of the molar value. Where a name gives a salt, the structure may show the parent alone.
property name: pKi

Consider the reported pKi for these compounds:
CC(C)N1CCC(N2CCCN(c3cccc(-c4nc5ccccc5o4)n3)CC2)CC1 [Example 152] : 6.30 to 7.00
CC(C)N1CCC(N2CCCN(c3cccc(C(=O)NC4CCOCC4)n3)CC2)CC1 [Example 2] : 6.30 to 7.00
CC(C)N1CCC(N2CCCN(c3cccc(C(=O)Nc4nccs4)n3)CC2)CC1 [Example 31] : > 7.70
CC(C)N1CCC(N2CC3CC(C2)N(c2cccc(C(=O)NCC4CC4)n2)C3)CC1 (centres unmarked) [Example 200] : 6.00 to 6.30
CC(C)N1CCC(N2CCCN(c3cccc(C(=O)Cc4ccccc4)n3)CC2)CC1 [Example 220] : 7.00 to 7.70

Tell us which pKi value is on record for CCc1nc(-c2cccc(N3CCCN(C4CCN(C(C)C)CC4)CC3)n2)no1 [Example 155, trihydrochloride]
6.30 to 7.00

Tell us which pKi value is on record for O=C(NCC1CCOCC1)c1cccc(N2CCCN(C3CCN(Cc4ccccc4Cl)CC3)CC2)n1 [Example 47]
> 7.70

Source: patent US10995091B2
